molecular target: human CB2 receptor (Homo sapiens, UniProt P34972); construct: expressed in transfected cells; host or cells: CHO-K1; assay: Displacement of 3H-CP55,940 in human CB2 receptor-transfected cells (CHO-K1); type: binding; conditions: read-out: Ki, displacement of 3H-CP55940; human CB2 transfected cells; radioligand 3H-CP55940; Tables 6 and 7
Sequence (P34972 whole entry): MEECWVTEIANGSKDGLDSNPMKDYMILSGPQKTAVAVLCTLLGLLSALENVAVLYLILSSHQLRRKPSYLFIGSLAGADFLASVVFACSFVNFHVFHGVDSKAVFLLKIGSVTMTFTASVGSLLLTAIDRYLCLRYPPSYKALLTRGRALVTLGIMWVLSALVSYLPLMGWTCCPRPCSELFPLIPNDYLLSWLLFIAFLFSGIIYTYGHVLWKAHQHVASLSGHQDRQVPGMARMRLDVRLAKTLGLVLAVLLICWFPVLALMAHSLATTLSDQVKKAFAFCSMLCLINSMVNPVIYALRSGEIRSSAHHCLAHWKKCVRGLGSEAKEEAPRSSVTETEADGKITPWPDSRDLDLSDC
recorded metric: Ki (nM)

                                 smiles_str  recorded_metric  recorded_value
0  CCOC(=O)c1nn(-c2ccc(Cl)cc2Cl)c(-c2ccc(Cl)cc2)c1C               Ki            4400

1: Cc1c(C(=O)NCC(C)C)nn(-c2ccc(Cl)cc2Cl)c1-c1ccc(Cl)cc1
2: CCCCCCNC(=O)c1nn(-c2ccc(Cl)cc2Cl)c(-c2ccc(Cl)cc2)c1C
3: Cc1c(C(=O)NCCCO)nn(-c2ccc(Cl)cc2Cl)c1-c1ccc(Cl)cc1
# rank by Ki, ascending (min first) Provide your answer as the labels ordered per the instruction.
1, 3, 2

###

molecular target: CB1 receptor (Rattus norvegicus, UniProt P20272); construct: Whole rat brains or dissected regions from live CD rats; tissue Charles River or Pel-Freez Biologicals; host or cells: whole rat brain (CD rats), P2 membrane; assay: Radioligand displacement in whole rat brain (CB1) membrane preparations; format: binding; details: Ki, displacement of 3H-WIN55212-2, whole rat brain membranes; radioligand 3H-WIN55212-2; Tables 1 and 2
Sequence (P20272 whole entry): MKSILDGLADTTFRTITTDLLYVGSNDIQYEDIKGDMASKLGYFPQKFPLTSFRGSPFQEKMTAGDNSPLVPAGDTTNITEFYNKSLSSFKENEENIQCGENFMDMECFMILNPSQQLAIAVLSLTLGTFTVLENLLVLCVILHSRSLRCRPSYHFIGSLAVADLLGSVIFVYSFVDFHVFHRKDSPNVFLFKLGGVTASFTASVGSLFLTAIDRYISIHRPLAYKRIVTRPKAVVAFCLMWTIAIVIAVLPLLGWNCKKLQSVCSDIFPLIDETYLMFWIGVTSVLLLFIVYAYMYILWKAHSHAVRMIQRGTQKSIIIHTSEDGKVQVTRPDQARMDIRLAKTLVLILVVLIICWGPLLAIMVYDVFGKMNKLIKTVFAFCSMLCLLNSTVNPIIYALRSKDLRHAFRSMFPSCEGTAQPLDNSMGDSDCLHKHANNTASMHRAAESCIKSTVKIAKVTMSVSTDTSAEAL
recorded metric: Ki (nM)

Worked examples follow.
>>> df
                                 smiles_str  measurement_unit  recorded_value
0  CCCCCCCCCNC(=O)c1nn(-c2ccc(Cl)cc2Cl)c(-c2ccc(Cl)cc2)c1C                nM            68.2
1  Cc1c(C(=O)NCC(C)C)nn(-c2ccc(Cl)cc2Cl)c1-c1ccc(Cl)cc1                nM            46.4
2  CCCCCCNC(=O)c1nn(-c2ccc(Cl)cc2Cl)c(-c2ccc(Cl)cc2)c1C                nM            16.6
3  CCCCNC(=O)c1nn(-c2ccc(Cl)cc2Cl)c(-c2ccc(Cl)cc2)c1C                nM            32.8
4  CCCCCCCCNC(=O)c1nn(-c2ccc(Cl)cc2Cl)c(-c2ccc(Cl)cc2)c1C                nM            36.2
5  CCCCCCCNC(=O)c1nn(-c2ccc(Cl)cc2Cl)c(-c2ccc(Cl)cc2)c1C                nM            28.8
6  CCCCCNC(=O)c1nn(-c2ccc(Cl)cc2Cl)c(-c2ccc(Cl)cc2)c1C                nM            12.6
7  CCCCCCC(C)(C)NC(=O)c1nn(-c2ccc(Cl)cc2Cl)c(-c2ccc(Cl)cc2)c1C                nM            10.4

1: Cc1c(C(=O)NC(C)C)nn(-c2ccc(Cl)cc2Cl)c1-c1ccc(Cl)cc1
2: Cc1c(C(=O)NC2CCCCC2)nn(-c2ccc(Cl)cc2Cl)c1-c1ccc(Cl)cc1
Lab note: check whether 1 or 2 shows the higher recorded Ki. Select an item and report its label.
1

###

biological target: G-protein-linked cannabinoid receptors (Rattus norvegicus, UniProt P20272); construct: tissue Charles River or Pel-Freez Biologicals; host or cells: whole rat brain crude membrane homogenate; test: GTP-γ-[35S] binding in whole rat brain; assay type: biochemical; details: whole rat brain membranes; effects reported as percent change from basal
recorded metric: Emax, GTP-γ-[35S] in Whole Rat Brain

>>> df
                                   molecule  recorded_value
0  Cc1c(C(=O)NC(C)CO)nn(-c2ccc(Cl)cc2Cl)c1-c1ccc(Cl)cc1 (single isomer, unassigned) [MF9725-105-38]           −83.8
1  CCCCCCCn1nc(C(=O)NN2CCCCC2)c(C)c1-c1ccc(Cl)cc1           −85.7
2  CCCCCCn1nc(C(=O)NN2CCCCC2)c(C)c1-c1ccc(Cl)cc1           −71.5
3  Cc1c(C(=O)NN2CCCCC2)nn(C2CCCCC2)c1-c1ccc(Cl)cc1           −71.7
4  Cc1c(C(=O)NN2CCCCC2)nn(-c2ccccc2)c1-c1ccc(Cl)cc1           −47.2
5  Cc1c(C(=O)NC(C)CO)nn(-c2ccc(Cl)cc2Cl)c1-c1ccc(Cl)cc1 (single isomer, unassigned) [MF9725-106-39]           −83.0

###

target: human CB2 receptor (Homo sapiens); construct: expressed in transfected cells; host or cells: CHO-K1; experiment: Displacement of 3H-CP55,940 in human CB2 receptor-transfected cells (CHO-K1); type: binding; settings: read-out: Ki, displacement of 3H-CP55940; human CB2 transfected cells; radioligand 3H-CP55940; Tables 6 and 7
recorded metric: Ki (µM)

a: Cc1c(C(=O)NCCCCO)nn(-c2ccc(Cl)cc2Cl)c1-c1ccc(Cl)cc1
b: Cc1c(C(=O)NC2CCCCC2)nn(-c2ccc(Cl)cc2Cl)c1-c1ccc(Cl)cc1
c: CCCCNC(=O)c1nn(-c2ccc(Cl)cc2Cl)c(-c2ccc(Cl)cc2)c1C
Returns the items ordered by Ki, from maximum to minimum. Provide your answer as the labels ordered per the instruction.
a, c, b

P: Cc1c(C(=O)NN2CCOCC2)nn(-c2ccc(Cl)cc2Cl)c1-c1ccc(Cl)cc1 [MF9725-33D]
Q: Cc1c(C(=O)NN)nn(-c2ccc(Cl)cc2Cl)c1-c1ccc(Cl)cc1
R: Cc1c(C(=O)NCCO)nn(-c2ccc(Cl)cc2Cl)c1-c1ccc(Cl)cc1
Rank order required: Ki, descending. Provide your answer as the labels ordered per the instruction.
Q, R, P
(Q: 12.1 µM, R: 4.27 µM, P: 2.41 µM)

###

biological target: CB1 receptor (Rattus norvegicus); construct: Whole rat brains or dissected regions from live CD rats; tissue Charles River or Pel-Freez Biologicals; host or cells: whole rat brain (CD rats), P2 membrane; test: Radioligand displacement in whole rat brain (CB1) membrane preparations; type: binding; settings: read-out: Ki, displacement of 3H-SR141716A; whole rat brain membranes; radioligand 3H-SR141716A; Tables 1 and 2
recorded metric: Ki (nM)

>>> print(df.to_string())
                                   molecule             target_or_test_system  recorded_value
0  CCNC(=O)c1nn(-c2ccc(Cl)cc2Cl)c(-c2ccc(Cl)cc2)c1C [MF9725-54C]  CB1 receptor (Rattus norvegicus)            61.5
1  Cc1c(C(=O)NN)nn(-c2ccc(Cl)cc2Cl)c1-c1ccc(Cl)cc1  CB1 receptor (Rattus norvegicus)             602
2  Cc1c(C(=O)NCC(C)C)nn(-c2ccc(Cl)cc2Cl)c1-c1ccc(Cl)cc1  CB1 receptor (Rattus norvegicus)            9.22
3  CCCCCCNC(=O)c1nn(-c2ccc(Cl)cc2Cl)c(-c2ccc(Cl)cc2)c1C  CB1 receptor (Rattus norvegicus)            10.7
4  Cc1c(C(=O)NCCO)nn(-c2ccc(Cl)cc2Cl)c1-c1ccc(Cl)cc1  CB1 receptor (Rattus norvegicus)             343

1: CCCCNC(=O)c1nn(-c2ccc(Cl)cc2Cl)c(-c2ccc(Cl)cc2)c1C
2: CCCNC(=O)c1nn(-c2ccc(Cl)cc2Cl)c(-c2ccc(Cl)cc2)c1C [MF9725-55C]
Lab note: check whether 1 or 2 shows the higher recorded Ki. Select an item and report its label.
2

###

biological target: human CB1 receptor (Homo sapiens, UniProt P21554); construct: expressed in transfected cells; host or cells: HEK-293; assay: Radioligand displacement in human CB1 receptor-transfected cells (HEK-293); type: binding; settings: Ki, displacement of 3H-CP55940
Sequence (P21554 whole entry): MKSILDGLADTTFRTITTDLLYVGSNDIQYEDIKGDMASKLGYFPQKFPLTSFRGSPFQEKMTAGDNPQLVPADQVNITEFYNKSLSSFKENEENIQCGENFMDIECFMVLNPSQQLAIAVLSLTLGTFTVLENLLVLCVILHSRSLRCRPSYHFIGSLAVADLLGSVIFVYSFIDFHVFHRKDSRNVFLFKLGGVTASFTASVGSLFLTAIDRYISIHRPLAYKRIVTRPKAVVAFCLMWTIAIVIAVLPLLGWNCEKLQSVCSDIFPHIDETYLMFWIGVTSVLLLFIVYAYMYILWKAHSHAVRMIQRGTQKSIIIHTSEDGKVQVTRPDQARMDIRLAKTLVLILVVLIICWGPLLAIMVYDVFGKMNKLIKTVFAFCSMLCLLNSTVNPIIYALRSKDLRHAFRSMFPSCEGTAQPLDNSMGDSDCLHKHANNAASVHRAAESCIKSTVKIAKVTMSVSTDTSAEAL
recorded metric: Ki (µM)
Give the quantity in µM, number only.

Worked examples follow.
>>> print(df.to_string())
                                   compound  recorded_value
0  CCCCCC(C)NC(=O)c1nn(-c2ccc(Cl)cc2Cl)c(-c2ccc(Cl)cc2)c1C (centres unmarked)          0.0119
1  CCCCCCCNC(=O)c1nn(-c2ccc(Cl)cc2Cl)c(-c2ccc(Cl)cc2)c1C          0.0291
2  CCCCCCCCNC(=O)c1nn(-c2ccc(Cl)cc2Cl)c(-c2ccc(Cl)cc2)c1C           0.288

I have this compound here, "CCCCCCCCCCNC(=O)c1nn(-c2ccc(Cl)cc2Cl)c(-c2ccc(Cl)cc2)c1C" , and I need its recorded Ki.
0.184

Now try "CCCCCCCCCNC(=O)c1nn(-c2ccc(Cl)cc2Cl)c(-c2ccc(Cl)cc2)c1C" .
0.307
